Reference source: paper PMC8512560

system: colchicine binding site of tubulin; experiment: Colchicine site competitive binding assay ([3H]colchicine); conditions: 1 µM drug; tubulin and colchicine at 1 and 5 µM
reported.metric: Colchicine Binding % ± SD (inhibition of [3H]colchicine binding), 1 µM Drug (%)
Numbers only here, please. The scale is %.

These recorded examples may help you get a feel for the data.
chemical.structure: CCc1ccc(-n2cc(-n3nnc4ccccc43)[nH]c2=S)cc1
system.name: colchicine binding site of tubulin
unit.descriptor: %
measured.value: 65.38
//
chemical.structure: S=c1[nH]c(-n2nnc3ccccc32)cn1-c1ccc(Cl)cc1
system.name: colchicine binding site of tubulin
unit.descriptor: %
measured.value: 63.23
//
chemical.structure: Oc1ccc(-n2cc(-n3nnc4ccccc43)[nH]c2=S)cc1
system.name: colchicine binding site of tubulin
unit.descriptor: %
measured.value: 61.78

q: Record request: Colchicine Binding % ± SD (inhibition of [3H]colchicine binding), 1 µM Drug value, item `S=c1[nH]c(-n2nnc3ccccc32)cn1-c1cccc(Cl)c1`
a: 59.74

q: Give its Colchicine Binding % ± SD (inhibition of [3H]colchicine binding), 1 µM Drug value. Item: `NS(=O)(=O)c1ccc(-n2cc(-n3nnc4ccccc43)[nH]c2=S)cc1`
a: 64.67

q: Colchicine Binding % ± SD (inhibition of [3H]colchicine binding), 1 µM Drug lookup needed for `S=c1[nH]c(-n2nnc3ccccc32)cn1-c1ccccc1Cl` , thanks.
a: 61.18

* * *

test system: MCF-7, HL-60 and HCT-116 cancer cell lines; experiment: MTT viability assay, values pooled over the cancer cell lines; assay type: cell-based, human; settings: Homo sapiens, MCF-7, HL-60 and HCT-116; MTT; read-out: IC50 values range over the three cancer cell lines
reported.metric: IC50

The examples below pair each entry with its known result.
compound: Oc1ccc(-n2cc(-n3nnc4ccccc43)[nH]c2=S)cc1 [BI5]
IC50: 1.51 to 15.5 µM

compound: S=c1[nH]c(-n2nnc3ccccc32)cn1-c1ccc(Cl)cc1 [BI6]
IC50: 1.51 to 7.29 µM

compound: S=c1[nH]c(-n2nnc3ccccc32)cn1-c1ccc(Cl)cc1Cl [BI9]
IC50: 0.4 to 3.3 µM

compound: Cc1ccc(-n2cc(-n3nnc4ccccc43)[nH]c2=S)cc1 [BI2]
IC50: > 10 µM

compound: S=c1[nH]c(-n2nnc3ccccc32)cn1-c1cccc(Cl)c1 [BI8]
IC50: 1.51 to 15.5 µM

Consider the record given below.
q: Look up IC50 for this compound: S=c1[nH]c(-n2nnc3ccccc32)cn1-c1ccc(Br)cc1 [BI11]
a: 11.5 to 38.2 µM

* * *

# key: entry, value: Colchicine Binding % ± SD (inhibition of [3H]colchicine binding), 5 µM Drug
tested on: colchicine binding site of tubulin; assay: Colchicine site competitive binding assay ([3H]colchicine); conditions: 5 µM drug; tubulin and colchicine at 1 and 5 µM
Note: unit % is implicit; provide only the numeric part.

Solved cases (3 shown):
chemical.structure: S=c1[nH]c(-n2nnc3ccccc32)cn1-c1ccccc1Cl
system.name: colchicine binding site of tubulin
measured.value: 79.95

chemical.structure: S=c1[nH]c(-n2nnc3ccccc32)cn1-c1cccc(Cl)c1
system.name: colchicine binding site of tubulin
measured.value: 82.13

chemical.structure: CCc1ccc(-n2cc(-n3nnc4ccccc43)[nH]c2=S)cc1
system.name: colchicine binding site of tubulin
measured.value: 86.85

q: What does the data say about its Colchicine Binding % ± SD (inhibition of [3H]colchicine binding), 5 µM Drug? Entry: `NS(=O)(=O)c1ccc(-n2cc(-n3nnc4ccccc43)[nH]c2=S)cc1`
a: 80.26

q: Please give the measured Colchicine Binding % ± SD (inhibition of [3H]colchicine binding), 5 µM Drug for this compound: `Oc1ccc(-n2cc(-n3nnc4ccccc43)[nH]c2=S)cc1`
a: 81.34

q: Look at this compound and give its reported Colchicine Binding % ± SD (inhibition of [3H]colchicine binding), 5 µM Drug. `S=c1[nH]c(-n2nnc3ccccc32)cn1-c1ccc(Cl)cc1`
a: 77.63

* * *

Readings of IC50 for the listed molecules
Tested on: HL-60 human leukemia cancer cell line
Test: MTT viability assay, HL-60
Format: cell-based
Details: Homo sapiens, HL-60, 72 h, mean ± SD of three independent experiments, read-out: Antiproliferative Activities IC50, HL-60
Description: All the human tumour cell lines MCF-7, HL-60, HCT-116, and HUVEC were cultured in Dulbecco’s Modified Eagle’s Medium (DMEM) with 10% fetal bovine serum, 2 mM L-glutamine and 100 µg/mL penicillin/streptomycin. […] The Benzotriazole compounds were evaluated for antiproliferative effect using the MTT viability assay of various cancer cell lines (MCF-7, HCT-116 and HL-60) and the normal human umbilical vein endothelial cell line (HUVEC) to calculate the relative IC50 values for each compound. […]

Illustrative cases are given below, each with its answer.
molecule: Oc1ccc(-n2cc(-n3nnc4ccccc43)[nH]c2=S)cc1
IC50: 1.1 µM

molecule: S=c1[nH]c(-n2nnc3ccccc32)cn1-c1ccc(Cl)cc1Cl
IC50: 0.4 µM

q: Name the reported IC50 value associated with the molecule `S=c1[nH]c(-n2nnc3ccccc32)cn1-c1ccc(Br)cc1`
a: 11.5 µM

* * *

system: MCF-7 human breast cancer cell line; experiment: MTT viability assay, MCF-7; format: cell-based; conditions: Homo sapiens, MCF7, 72 h, mean ± SD of three independent experiments, read-out: Antiproliferative Activities IC50, MCF-7
reported.metric: IC50 (µM)
# output: bare number, implied unit µM

molecule: Oc1ccc(-n2cc(-n3nnc4ccccc43)[nH]c2=S)cc1
unit.descriptor: µM
IC50: 4.4

q: Write down the reported IC50 of `S=c1[nH]c(-n2nnc3ccccc32)cn1-c1ccc(Br)cc1` , test system: MCF-7 human breast cancer cell line.
a: 38.2

q: So what IC50 did `CCc1ccc(-n2cc(-n3nnc4ccccc43)[nH]c2=S)cc1` get with MCF-7 human breast cancer cell line?
a: 10.6

q: Value wanted: IC50 (MCF-7 human breast cancer cell line) of entry `S=c1[nH]c(-n2nnc3ccccc32)cn1-c1ccc(Cl)cc1`
a: 7.29

q: State its IC50 on MCF-7 human breast cancer cell line: COc1ccc(/C=C\c2cc(OC)c(OC)c(OC)c2)cc1O [CA-4, Combretastatin A-4, reference compound]
a: 0.58

q: Provide value of IC50 for this record tested with MCF-7 human breast cancer cell line: `COc1ccc(-n2cc(-n3nnc4ccccc43)[nH]c2=S)cc1`
a: 2.29

q: Observed IC50 on MCF-7 human breast cancer cell line for `S=c1[nH]c(-n2nnc3ccccc32)cn1-c1ccccc1Cl` , please.
a: 15.5

q: Please provide the recorded IC50 for `NS(=O)(=O)c1ccc(-n2cc(-n3nnc4ccccc43)[nH]c2=S)cc1` , tested on MCF-7 human breast cancer cell line.
a: 6.1

q: Record `S=c1[nH]c(-n2nnc3ccccc32)cn1-c1ccc(Cl)cc1Cl` : what is its IC50 with MCF-7 human breast cancer cell line?
a: 3.57

q: Any idea what IC50 came out for `S=c1[nH]c(-n2nnc3ccccc32)cn1-c1ccccc1` on MCF-7 human breast cancer cell line?
a: 6.4

q: IC50 of `S=c1[nH]c(-n2nnc3ccccc32)cn1-c1cccc(Cl)c1` on MCF-7 human breast cancer cell line?
a: 2.66

q: Form field - read-out: IC50; system: MCF-7 human breast cancer cell line; submitted item: `Cc1ccc(-n2cc(-n3nnc4ccccc43)[nH]c2=S)cc1`
a: 12.5

* * *

As shown below, each of these compounds has a reported melting point value.

Worked examples, 5 compounds total:
chemical.structure: S=c1[nH]c(-n2nnc3ccccc32)cn1-c1ccccc1
melting point: 175 to 177 °C

chemical.structure: Fc1ccccc1N1CC(n2nnc3ccccc32)=NC1=S
melting point: 196 to 198 °C

chemical.structure: S=c1[nH]c(-n2nnc3ccccc32)cn1-c1ccc(Cl)cc1
melting point: 187 to 189 °C

chemical.structure: COc1ccc(-n2cc(-n3nnc4ccccc43)[nH]c2=S)cc1
melting point: 175 to 177 °C

chemical.structure: S=c1[nH]c(-n2nnc3ccccc32)cn1-c1cccc(Cl)c1
melting point: 120 to 122 °C

q: Quick one: melting point for `S=c1[nH]c(-n2nnc3ccccc32)cn1-c1ccc(Br)cc1` ?
a: 267 to 269 °C

q: For the compound shown here, `CCc1ccc(-n2cc(-n3nnc4ccccc43)[nH]c2=S)cc1` , give the reported melting point.
a: 150 to 152 °C

q: Returns the measured melting point for the input compound. Input: `Oc1ccc(-n2cc(-n3nnc4ccccc43)[nH]c2=S)cc1`
a: 267 to 269 °C

q: GET /values?readout=melting point&item= `S=c1[nH]c(-n2nnc3ccccc32)cn1-c1ccccc1Cl`
a: 180 to 182 °C

q: Any idea what its melting point is? The compound is `Cc1ccc(-n2cc(-n3nnc4ccccc43)[nH]c2=S)cc1`
a: 178 to 180 °C

q: Name the reported melting point value associated with the compound `NS(=O)(=O)c1ccc(-n2cc(-n3nnc4ccccc43)[nH]c2=S)cc1`
a: 217 to 219 °C
